Biological target: Carbonic anhydrase 2 (Homo sapiens) (UniProt P00918)
Assay: CAII small-molecule binders, profiling panel, biochemical, small-molecule microarray, Alexa647-labelled CAII (AID 1122)
Conditions: CAII-A647 binding fluorescence, higher = more signal
Measurement name: composite z-score
Answer with the value's number alone.

INSERT INTO measurements (compound, value_observed) VALUES
  ('CCS[C@H]1[C@@H](C(=O)O)[C@H](c2ccc(C)cc2)N(S(=O)(=O)c2ccc(C)cc2)[C@@H]1CC', 0.519),
  ('C=CC[C@]1(C(=O)NCCCOC)N=C(c2ccc(OCCCO)cc2)O[C@H]1c1ccccc1CN=[N+]=[N-]', 0.748),
  ('COc1cc2c(cc1O)C(c1cccs1)N(C)CC2 (centres undefined)', 0.311),
  ('CN(C)CCCCCCNC(=O)[C@H]1C[C@H]2C(=O)N[C@@H](CCCCN)C(=O)N2[C@H]1c1cccc(OCCO)c1', 0.773),
  ('COc1ccc(C#Cc2ccc3c(c2)[C@]2(C(=O)N3)[C@H](C(=O)NC[C@H](O)c3ccccc3)[C@H]3C(=O)O[C@H](c4ccccc4)[C@H](c4ccccc4)N3[C@@H]2c2ccc(O)cc2)cc1', 0.566),
  ('COCCOC(=O)N1C(=O)[C@@]2(c3ccccc31)[C@H](c1ccccc1OCCO)N1[C@H](c3ccccc3)[C@H](c3ccccc3)OC(=O)[C@H]1[C@@H]2C(=O)N1CCN(c2ncccn2)CC1', 0.521),
  ('O=C1c2ccccc2[C@](Cc2ccccc2I)(C(=O)NCC(F)(F)F)[C@H](c2ccc(CO)cc2)N1Cc1ccccc1Cl', 0.596),
  ('COc1ccc([Si](C)(C)[C@@H]2[C@@H](CC(=O)N3CCC[C@H]3CO)O[C@]3(C(=O)N(c4ccccc4)c4ccccc43)[C@H]2C)cc1', 0.575);

Shift focus to the following entry.
The recorded composite z-score with Carbonic anhydrase 2 (Homo sapiens) (UniProt P00918) for COC(=O)[C@H](Cc1ccccc1)N[C@@H](/C=C/C1CC1)[C@H](O)Cc1ccccc1 was 0.209
